# Study system: T1, human a-PD-L1 Fc (Sino Biological, 10084-H02H, LC11NO2402) (human, UniProt Q9NZQ7 19-239)
# T1 construct: Bought Fc fusion immobilised on the SPR chip; Printed as 'a-PD-L1 Fc' but used as the antigen (ligand) for the anti-PD-L1 scFvs; also called Human PD-L1; not shown: Fc part
# T1 sequence (Q9NZQ7 19-239 limits assumed): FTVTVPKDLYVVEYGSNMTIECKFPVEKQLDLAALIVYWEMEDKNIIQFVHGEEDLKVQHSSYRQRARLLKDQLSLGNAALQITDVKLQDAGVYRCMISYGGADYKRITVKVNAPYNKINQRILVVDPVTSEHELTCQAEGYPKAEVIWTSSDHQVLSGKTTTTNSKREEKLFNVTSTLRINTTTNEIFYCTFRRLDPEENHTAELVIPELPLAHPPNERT
# Protocol description: SPR, PD-L1 Fc immobilised, scFv analyte, 1:1 fit
# n-fold to wt annotations

Binder	n-fold to wt (fold)
PRO2934 (scFv 37-20-B03-sc09.1_(L144K, S148L)) (scFv, PRO2230 variant; VH substitutions, AHo numbering; also called PRO2230 L144K-S148L) scFv: DIQMTQSPASLSASVGDRVTITCQASQSIGTYLAWYQQKPGKPPKLLIYRAFILASGVPSRFSGSGSGTDFTLTISSLQPEDFATYYCQSNFYSDSTTIGPNAFGTGTKVTVLGGGGGSGGGGSGGGGSGGGGSEVQLVESGGGLVQPGGSLRLSCAASGFSFNSDYWIYWVRQAPGKGLEWIASIYGGSSGNTQYASWAQGRFTISRDNSKNTVYLQMNSLRAEDTAVYFCARGYVDYGGATDLWGQGTKVTVLS	0.4
PRO2986 (scFv 37-20-B03-sc09.1_(T146A)) (scFv, PRO2230 variant; VH substitution, AHo numbering; also called PRO2230 T146A) scFv: DIQMTQSPASLSASVGDRVTITCQASQSIGTYLAWYQQKPGKPPKLLIYRAFILASGVPSRFSGSGSGTDFTLTISSLQPEDFATYYCQSNFYSDSTTIGPNAFGTGTKVTVLGGGGGSGGGGSGGGGSGGGGSEVQLVESGGGLVQPGGSLRLSCAASGFSFNSDYWIYWVRQAPGKGLEWIASIYGGSSGNTQYASWAQGRFTISRDNSKNTVYLQMNSLRAEDTAVYFCARGYVDYGGATDLWGQGTLVAVSS	1.4
PRO3307 (scFv 37-20-B03-sc09.1_(L12A, T101S, L144A, T146R)) (scFv, PRO2230 variant; VH substitutions, AHo numbering; also called PRO2230 L12A-T101S-L144A-T146R) scFv: DIQMTQSPASLSASVGDRVTITCQASQSIGTYLAWYQQKPGKPPKLLIYRAFILASGVPSRFSGSGSGTDFTLTISSLQPEDFATYYCQSNFYSDSTTIGPNAFGTGTKVTVLGGGGGSGGGGSGGGGSGGGGSEVQLVESGGGAVQPGGSLRLSCAASGFSFNSDYWIYWVRQAPGKGLEWIASIYGGSSGNTQYASWAQGRFTISRDNSKNTVYLQMNSLRAEDSAVYFCARGYVDYGGATDLWGQGTAVRVSS	0.6
